Test: Tmax in cynomolgus monkey at 3 mg/kg, po by LC-MS/MS
Format: ADME, organism-based, Macaca fascicularis
Assay conditions: in vivo
Kindly return 1 (yes) if reported Tmax is no lower than 4 h; return 0 (no) if it is lower.

1. Cn1c(COc2cccc(C(=O)O)c2)nc2ccc(Oc3ccc(Cl)c(F)c3)cc21: 0 (no)
2. Cn1c(COc2cccc(C(=O)O)c2)nc2ccc(Oc3ccc4c(c3)OCC4)nc21: 0 (no)
3. Cc1cnc(Oc2ccc3nc(COc4cccc(C(=O)O)c4)n(C)c3c2)c(C)c1: 1 (yes)
4. Cn1c(COc2cccc(C(=O)O)c2)nc2ccc(Oc3ncc(Cl)cc3F)cc21: 0 (no)
